System: MCF7 breast
measurement-protocol: NCI-60 one-dose screen, 48 h (100 = growth as untreated, 0 = no growth, -100 = all killed)
run-conditions: 10 µM unless noted
Compounds without any hit were thinned out: in the full panel of roughly 83,000, 20% have a hit.
readout-label: growth (%)
// units = %; emit number, no label

In the examples that follow, each entry is paired with its recorded growth.
[[record]]
compound = "CNC1=C([N+](=O)[O-])C(c2ccc(OC)cc2)C(C#N)=C(c2ccc[nH]2)O1 (centres undefined)"
unit_info = "%"
number = 86.4

[[record]]
compound = "Cc1oc2ccc(O)c(CN3CCCCCC3)c2c1C(=O)Nc1ccc(C(F)(F)F)cc1"
unit_info = "%"
number = 48.1

[[record]]
compound = "O=C(Cn1cc(CSc2nc3ccccc3o2)nn1)Nc1ccc([N+](=O)[O-])cc1"
unit_info = "%"
number = 96.8

[[record]]
compound = "NCCCCCNc1noc(Cc2c[nH]c3cc(Br)ccc23)n1"
unit_info = "%"
number = 21.8

[[record]]
compound = "Cc1cc([N+](=O)[O-])ccc1NC(=O)c1ccc2c(c1)nc(-c1ccccc1)n2C1CCCCC1"
unit_info = "%"
number = 77

[[record]]
compound = "FC(F)(F)c1cc(N2CCCCC2)nc(NCCCNc2ccnc3cc(Cl)ccc23)n1"
unit_info = "%"
number = 43.7


growth measured on "Oc1cccc2c1NCCC2" = 13.1

growth measured on "C=CCn1c(SCC(=O)Nc2ccc(C(=O)/C=C/c3ccc(Cl)cc3)cc2)nnc1-c1ccc(Cl)c(Cl)c1" = 19.7

growth measured on "O=C(Nc1ncc(Cc2ccc(Cl)cc2)s1)c1ccc2c(c1)OCCO2" = 10.2
